# Assay protocol: protein stability index of a GFP-peptide fusion (yeast GPS) (PSI 1-4); higher = more stable; sorted into four equal gates, so the index is relative within each strain
# Assay conditions: pdr5∆
Consider the following sequences and their measured protein stability index readings.
Value kind: protein stability index

macromolecule_sequence="GQGEQVDDVLETISAIE [RPN1]" data_value=3.05
macromolecule_sequence="TVQLTFLIDVLKIYAQI [YCG1]" data_value=1.99
macromolecule_sequence="QFMKRFPMPYENEEFIT [ECM29]" data_value=2.83
macromolecule_sequence="VNDRSDISDSEGGLFEC [PCI8]" data_value=3.11
macromolecule_sequence="RVTNTTSTDFPGFSKDA [RPC40]" data_value=3.04
macromolecule_sequence="NDDIEWMLSICVEWRLP [YJR042W/NUP85]" data_value=1.53
macromolecule_sequence="DSVATVIEVIETKWDDA [YJR042W/NUP85]" data_value=2.64
macromolecule_sequence="FKKQMQTIMKMGPLSNI [SRP54]" data_value=3.14
macromolecule_sequence="NEESTNERLEINQEKPV [SIR4]" data_value=3.32
macromolecule_sequence="KEVLPDLQNLNLNTDKL [YJL039C/NUP192]" data_value=2.94
macromolecule_sequence="KKSGSLTFNSKNIQSKD [FAS2]" data_value=3.29
macromolecule_sequence="MENNEPAMAMEDLKNFI [SRB8]" data_value=3.29
macromolecule_sequence="TLYSVKSKEDMKQLKFF [SNU114]" data_value=3.33
macromolecule_sequence="QGMEGTVDLALFGSPPF [YMR129W/POM152]" data_value=3.41
macromolecule_sequence="SSDGALCMDSSYIGTII [POP1]" data_value=2.71
macromolecule_sequence="DLEHKEDCVEEFFHLQH [QCR6]" data_value=2.75
macromolecule_sequence="KVLLDSKDVQQIDYKLE [RPS7A]" data_value=3.15
macromolecule_sequence="LPVKWETTTQFKATHIL [FAS1]" data_value=2.32
macromolecule_sequence="DRNLTEFDSTDTSLCIN [RRI1]" data_value=3
macromolecule_sequence="AAGAGAAAGAAMIDAGA [FAS2]" data_value=2.98
macromolecule_sequence="VFHDPDHSMILPSGVLS [SMC3]" data_value=2.08
macromolecule_sequence="KPKMLPIPSKPTLFDLA [SRP68]" data_value=2.54
macromolecule_sequence="DPRHIQLLGDVMTYKGE [RPO31]" data_value=3.17
macromolecule_sequence="KSRIVKVVGPRGTLTKN [RPL9A]" data_value=2.92
macromolecule_sequence="LSDIETAVNGIDTDLFG [YGL172W/NUP49]" data_value=3.16
macromolecule_sequence="AQDEVFSLAFSPNRYWL [ASC1]" data_value=2.75
macromolecule_sequence="LDDWISIGYETELKKIT [IRR1]" data_value=2.75
macromolecule_sequence="PLKYTKLIAAAEDGSRS [SNF6]" data_value=1.49
macromolecule_sequence="VMNTKLLQEGGSLSGNS [ESC2]" data_value=3.44
macromolecule_sequence="LLFKARLQQQQAQAQAQ [GAL11]" data_value=1.59
macromolecule_sequence="IPDHLAELIPELYSFQQ [SNF12]" data_value=2.94
macromolecule_sequence="PLAKIYLEENKSDSQYR [MED1]" data_value=3.18
macromolecule_sequence="LLIADSRRPEPKKFGGK [RPS16A]" data_value=3.12
macromolecule_sequence="KLYFQLFLNTGCLSVLY [SRP68]" data_value=1.19
macromolecule_sequence="YKAKIKELENNLERLRS [YIL149C/MLP2]" data_value=1.65
macromolecule_sequence="TNVNVKIKDVQQQIESN [SMC3]" data_value=3.17
macromolecule_sequence="SKKLDVTVEQLRSIYHQ [NSL1]" data_value=2.25
macromolecule_sequence="FLLTQSKVSIEQRKEAA [RPN7]" data_value=2.53
macromolecule_sequence="EVGMKVQSGQIYINKSV [RET1]" data_value=3.05
macromolecule_sequence="KYYIVSSSKSMINDENY [SRB8]" data_value=2.76
macromolecule_sequence="SLLLSSSFKEDCLSFAP [SSN2]" data_value=3.17
macromolecule_sequence="TRLYDYEIRDIDQDIHG [SSN2]" data_value=3.55
macromolecule_sequence="SAAGMTAAIDSVVSQIE [FAS1]" data_value=3.15
macromolecule_sequence="DKLLDFIRYDVKTPKKT [CSN12]" data_value=2.64
macromolecule_sequence="FPQTAMLRRHAAPPSTN [DIS3]" data_value=1.93
macromolecule_sequence="AKLNHLKKLEKFMELER [SWI3]" data_value=2.83
